Molecular target: N-formyl peptide receptor 2 (Homo sapiens, UniProt P25090)
Assay: Agonist activity at human FPR2 expressed in human HL60 cells assessed as induction of calcium mobilization measured every 5 secs for 240 secs by Fluo-4-AM dye based fluorometric method
Type: functional, cell-based
Property: EC50

| Smiles str | Result |
| --- | --- |
| N#Cc1ccc(C[C@@H](NC(=O)Nc2ccc(F)cc2)C(=O)NCC2(c3ccc(OC(F)(F)F)cc3)CC2)cc1 | Not Active |
| Cc1ccc(C2(CNC(=O)[C@@H](Cc3ccc(C#N)cc3)NC(=O)Nc3ccc(F)cc3)CC2)cc1F | Not Active |
| N#Cc1ccc(C[C@H](NC(=O)Nc2ccc(F)cc2)C(=O)NCC2(c3ccc(OC(F)(F)F)cc3)CC2)cc1 | Not Active |
| COc1ccc(NC(=O)N[C@H](Cc2ccc(C#N)cc2)C(=O)NCC2(c3ccc(C)c(F)c3)CC2)cc1 | Not Active |

====

Assay: Half life in rat liver microsomes at 10 uM preincubated for 10 mins followed by NADPH addition by liquid chromatographic method
Type: ADME, microsome
Property: t1/2

## Input Returns the measured t1/2 for the input compound. Input: N#Cc1ccc(C[C@H](NC(=O)Nc2ccc(F)cc2)C(=O)NCC2(c3ccc(F)c(Cl)c3)CC2)cc1
## Output 0.8 h

## Input Returns the measured t1/2 for the input compound. Input: O=C(Nc1ccc([N+](=O)[O-])cc1)N[C@H](Cc1cccnc1)C(=O)NCC1(c2ccccc2)CC1
## Output 1.65 h

## Input Returns the measured t1/2 for the input compound. Input: N#Cc1ccc(C[C@@H](NC(=O)Nc2ccc([N+](=O)[O-])cc2)C(=O)NCC2(c3ccccc3)CC2)cc1
## Output 1.58 h

====

Target: N-formyl peptide receptor 2 (Homo sapiens) (UniProt P25090)
Sequence (P25090 whole entry): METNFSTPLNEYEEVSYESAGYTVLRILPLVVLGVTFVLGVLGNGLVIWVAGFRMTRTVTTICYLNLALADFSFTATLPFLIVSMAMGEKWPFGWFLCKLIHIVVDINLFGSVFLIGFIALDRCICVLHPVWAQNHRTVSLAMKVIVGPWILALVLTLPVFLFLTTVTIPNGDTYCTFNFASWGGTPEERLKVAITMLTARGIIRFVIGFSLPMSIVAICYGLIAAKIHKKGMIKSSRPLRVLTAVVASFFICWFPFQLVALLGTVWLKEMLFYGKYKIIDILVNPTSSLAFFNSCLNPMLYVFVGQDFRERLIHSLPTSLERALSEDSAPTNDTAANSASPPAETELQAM
Test: Agonist activity at human FPR2 expressed in human HL60 cells assessed as induction of calcium mobilization measured every 5 secs for 240 secs by Fluo-4-AM dye based fluorometric method relative to WKYMVM
Type: functional, cell-based
For each of the compounds below, state its Efficacy.
Report the value in % with no unit label.

## Input Returns the measured Efficacy for the input compound. Input: N#Cc1ccc(C[C@@H](NC(=O)Nc2ccc(F)cc2)C(=O)NCC2(c3ccc(F)c(Cl)c3)CC2)cc1
## Output 90

## Input Returns the measured Efficacy for the input compound. Input: N#Cc1ccc(C[C@H](NC(=O)Nc2ccc(F)cc2)C(=O)NCC2(c3ccc(F)c(Cl)c3)CC2)cc1
## Output 80

## Input Returns the measured Efficacy for the input compound. Input: O=C(Nc1ccc([N+](=O)[O-])cc1)N[C@@H](Cc1cccnc1)C(=O)NCC1(c2ccccc2)CC1
## Output 60

## Input Returns the measured Efficacy for the input compound. Input: N#Cc1ccc(C[C@H](NC(=O)Nc2ccc([N+](=O)[O-])cc2)C(=O)NCC2(c3ccccc3)CC2)cc1
## Output 100

## Input Returns the measured Efficacy for the input compound. Input: COc1ccc(NC(=O)N[C@H](Cc2ccc(C#N)cc2)C(=O)NCC2(c3ccc(F)c(Cl)c3)CC2)cc1
## Output 60

## Input Returns the measured Efficacy for the input compound. Input: N#Cc1ccc(C[C@@H](NC(=O)Nc2ccc([N+](=O)[O-])cc2)C(=O)NCC2(c3ccccc3)CC2)cc1
## Output 90

## Input Returns the measured Efficacy for the input compound. Input: O=C(Nc1ccc([N+](=O)[O-])cc1)N[C@H](Cc1cccnc1)C(=O)NCC1(c2ccccc2)CC1
## Output 60

## Input Returns the measured Efficacy for the input compound. Input: COc1ccc(NC(=O)N[C@@H](Cc2ccc(C#N)cc2)C(=O)NCC2(c3ccc(F)c(Cl)c3)CC2)cc1
## Output 60
